assayedTarget: Proteasome subunit beta (Trypanosoma cruzi)
Sequence (whole entry): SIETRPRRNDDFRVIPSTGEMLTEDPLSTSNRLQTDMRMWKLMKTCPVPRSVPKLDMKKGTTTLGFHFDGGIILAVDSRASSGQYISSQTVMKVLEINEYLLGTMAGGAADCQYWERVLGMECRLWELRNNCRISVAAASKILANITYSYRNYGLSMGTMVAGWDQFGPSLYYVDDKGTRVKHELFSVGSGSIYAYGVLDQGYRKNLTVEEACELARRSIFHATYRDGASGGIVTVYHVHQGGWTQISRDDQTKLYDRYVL
testDescription: Trypanosoma cruzi proteasome chymotrypsin-like activity (TcProtChymo) assay. Also: in the data most compounds retested in dose-response had high values.
Type: functional
Parameters: scale not given: direction of the effect not stated beside the values
measurementParameters: 9.37 µM
resultType: Percent Effect (%)
One number for each entry, in %.

Cc1nn(C)c2c(NCCCn3cccn3)ncnc12; 21.6
CC(C)(C)n1ncc2c1NC(=O)CC2c1ccccc1 (stereo unspecified); 13.2

Provide each entry's Percent Effect from the list below.
1. Cc1nc(-c2ccsc2)ccc1C(=O)NCCC1CCCO1 (stereo unspecified)
2. COc1ccc(C2=CCN(C(=O)CN(C)CC(N)=O)CC2)cc1
3. COCC1COCCC12CCN(CCc1ccccc1)CC2 (stereo unspecified)
4. CC(OCC1CC1)C(=O)N1CCCN(c2ncccc2C#N)CC1 (stereo unspecified)

[reply]
1: 3.51; 2: 9.42; 3: 16.5; 4: 2.79

###

assayedTarget: Arginase-2, mitochondrial (Homo sapiens) (UniProt P78540)
Sequence (whole entry): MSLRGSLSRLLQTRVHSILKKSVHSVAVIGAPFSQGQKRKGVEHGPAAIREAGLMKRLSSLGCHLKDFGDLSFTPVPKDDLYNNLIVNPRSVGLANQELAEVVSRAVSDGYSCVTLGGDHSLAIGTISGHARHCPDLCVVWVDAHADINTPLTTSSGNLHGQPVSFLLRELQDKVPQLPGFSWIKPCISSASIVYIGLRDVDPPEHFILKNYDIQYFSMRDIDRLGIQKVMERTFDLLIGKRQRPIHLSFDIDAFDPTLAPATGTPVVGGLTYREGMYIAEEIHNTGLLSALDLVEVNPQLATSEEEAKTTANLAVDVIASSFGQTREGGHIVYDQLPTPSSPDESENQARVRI
testDescription: in vitro enzyme assay to detect the production of urea directly proportional to the activity of Arginase II; also: in the data most compounds retested in dose-response had high values
Format: functional
Set-up: scale not given: direction of the effect not stated beside the values
measurementParameters: 33.3 µM
resultType: Percent Effect (%)
Answers are plain numbers, in %.

Cc1cccc(-c2noc(CN3CCCC(Cn4cncn4)C3)n2)c1 (centres undefined); 3.04
Cc1nn(-c2ccccc2)c2c1C(c1ccc(C(=O)O)cc1)CC(=O)N2 (centres undefined); 2.6
Cc1cccn2c(=O)cc(OC(=O)c3ccccc3)nc12; -14.2
CN1CC(=O)N(c2ccsc2)CC12CCN(S(C)(=O)=O)C2 (centres undefined); -2.5
Cc1ccccc1CN1CCCN(C2CCOC2=O)CC1 (centres undefined); 1.2
Cn1c(C2CC2)nc2c1CCN(CCS(=O)(=O)c1ccccc1)C2; 0

Provide each entry's Percent Effect from the list below.
1. CCc1nc(C)c(C(=O)NCCN2CCN(C(C)=O)CC2)s1
2. c1csc(CN2C[C@@H]3OCCN(CC4CCCO4)[C@@H]3C2)c1 (some centres undefined)
3. CNC(=O)c1cccc(NC(=O)CN2CCN(S(C)(=O)=O)CC2)c1

[reply]
1: 1.43; 2: -1.2; 3: 4.22

###

assayedTarget: Tyrosyl-tRNA synthetase, putative (Trypanosoma cruzi (strain CL Brener)) (UniProt Q4DSP6)
Sequence (Q4DSP6 as listed by the source): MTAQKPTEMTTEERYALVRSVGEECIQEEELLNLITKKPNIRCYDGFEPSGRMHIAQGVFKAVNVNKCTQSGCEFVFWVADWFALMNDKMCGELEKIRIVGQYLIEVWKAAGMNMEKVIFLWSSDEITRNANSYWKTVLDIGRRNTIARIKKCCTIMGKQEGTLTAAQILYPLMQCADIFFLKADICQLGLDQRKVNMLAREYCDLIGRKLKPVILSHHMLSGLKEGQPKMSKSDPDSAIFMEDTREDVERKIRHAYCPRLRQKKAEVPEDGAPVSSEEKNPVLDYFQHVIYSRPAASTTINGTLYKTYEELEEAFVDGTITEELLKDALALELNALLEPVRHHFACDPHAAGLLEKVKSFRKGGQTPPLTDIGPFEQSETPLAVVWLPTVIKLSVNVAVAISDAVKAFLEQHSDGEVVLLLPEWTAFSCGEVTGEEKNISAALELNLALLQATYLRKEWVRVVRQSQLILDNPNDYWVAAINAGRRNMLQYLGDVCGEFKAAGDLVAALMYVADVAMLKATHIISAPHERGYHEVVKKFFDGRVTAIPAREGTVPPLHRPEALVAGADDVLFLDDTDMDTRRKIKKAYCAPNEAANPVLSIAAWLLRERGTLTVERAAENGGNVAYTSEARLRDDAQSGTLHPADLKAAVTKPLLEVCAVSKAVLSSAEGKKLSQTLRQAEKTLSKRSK
testDescription: Trypanosoma cruzi tyrosyl tRNA synthetase (TcYRS) SOP
Assay type: functional
Design: scale not given: direction of the effect not stated beside the values
measurementParameters: 30 µM
Please note: Percent Effect exactly at 10% is NO. Only values below 10% get YES.

Please review the entries below; each comes with its answer.
COc1ccccc1OCCN1CCC(N2CCNC2=O)CC1; YES
O=C(NC1CC(=O)N(Cc2cccc(F)c2)C1)c1ccncc1 (stereo unspecified); YES
Cc1ccc(-c2nnc(SCC(=O)O)n2-c2ccc(C)cc2)cc1; YES

[ask] Does the reported Percent Effect of CN(C)C(=O)c1nc2c(s1)CCN(C(=O)c1ccc(Cl)cc1)CC2 stay below 10%?
[reply] NO

[ask] Does the reported Percent Effect of O=C(c1cccc(N2CCCC2=O)c1)N1CCCC(n2cncn2)C1 (stereo unspecified) stay below 10%?
[reply] NO

[ask] Does the reported Percent Effect of O=C(C(CNCc1ccncc1)c1ccccc1)N1CCOCC1 (stereo unspecified) stay below 10%?
[reply] NO

###

Species: Homo sapiens
testDescription: To identify inhibition of the IFN signalling (Jak-Stat) pathway via expression of an eGFP reporter gene under the control of an IFN-stimulated response element (ISRE) containing MxA promoter.
Format: functional
Design: scale not given: direction of the effect not stated beside the values
measurementParameters: 30 µM
Assignment: determine reported Percent Effect for the given compounds.
One number for each entry, in %.

Field: example entries. Status: answers known.
O=C(c1cc(Cl)c2c(c1)OCO2)N1CCCC(n2ccnc2)C1 (configuration not stated); 9.8
Cc1cc(C)nc(N2Cc3cnn(Cc4ccc(F)cc4)c3C2)n1; 33.6

Provide each entry's Percent Effect from the list below.
1. CN(C)C(=O)C1CCCN1CCCNC(=O)c1ccccc1F (configuration not stated)
2. Cc1oc(-c2ccsc2)nc1CC(=O)NCCS(C)(=O)=O
3. Cc1ccc(CNCCOc2ccc(S(C)(=O)=O)cc2)cc1
4. Cc1cc(C(=O)N2CCc3nnc(N)cc3C2)c(C)n1C1CC1
5. CCc1nc(C2CCCN2Cc2nc3ccccc3o2)no1 (configuration not stated)
6. Cc1ccc(NC2CCN(C(=O)Cn3nc(C)cc3C)CC2)nn1
7. Cc1ccc(NC(=O)C2=CN=S=N2)cc1

[reply]
[12.8, 3.37, 9.56, 2.81, -1.25, 6.37, 21.4]

Provide each entry's Percent Effect from the list below.
1. COc1cccc2c1OCC(NC(=O)NC1CCN(C3CC3)CC1)C2 (configuration not stated)
2. Cc1nc(CN(Cc2cccs2)C2CCS(=O)(=O)C2)oc1C (configuration not stated)
3. CN(Cc1ccco1)Cc1cncc2c1CCN(c1ncccn1)C2

[reply]
[3.27, -8.22, -4.67]

###

assayedTarget: Tyrosyl-tRNA synthetase, putative (Trypanosoma cruzi (strain CL Brener)) (UniProt Q4DSP6)
testDescription: Trypanosoma cruzi tyrosyl tRNA synthetase (TcYRS) _High Tyrosine SOP; also: in the data most compounds retested in dose-response had high values
Type: functional
Parameters: scale not given: direction of the effect not stated beside the values
measurementParameters: 30 µM
Assignment: determine reported Percent Effect for the given molecules.
Give bare numbers, in %.

COc1ccc(CNCc2ccc(N3CCCCC3)nc2)cc1OC; 8.13
COc1ccc2c(O)c(NC(=O)NCC3CC3)cnc2c1; 2.15
c1ccc(-c2cnc(CNCC3CCCN3c3cccnn3)o2)cc1 (stereo not drawn); 16.2
Cc1nccc(-c2cccc(NCC(=O)N3CCc4sccc4C3)c2)n1; 11.3
O=C(c1cccc(NCCO)c1)N1CCOCC1; 2.15

Provide each entry's Percent Effect from the list below.
1. CC(C)(C)c1n[nH]c(C2CN(C(=O)CCc3cscn3)CCO2)n1 (stereo not drawn)
2. O=C1[C@H]2CN(c3ncccn3)C[C@H]2CN1Cc1ccncc1
3. CCCN1CCN(C(=O)c2cnccn2)[C@H]2CS(=O)(=O)C[C@H]21
4. CCOCCCNC(=O)c1ccccc1S(C)(=O)=O

[reply]
[3.35, 3.96, 4.76, 1.06]

Provide each entry's Percent Effect from the list below.
1. c1cn2c(n1)CN(CC1CC1)CC(CN1CCOCC1)C2 (stereo not drawn)
2. COC(=O)CCNC(=O)c1ccoc1CN1c2ccccc2CC1C (stereo not drawn)
3. CN(C)C(CNC(=O)c1cc2c([nH]c1=O)CCCC2=O)c1ccsc1 (stereo not drawn)
4. CC(O)CN1CCC(CNCc2ccccc2OC(F)(F)F)CC1 (stereo not drawn)
5. CCn1cc(NC(=O)NCc2ccc(CN3CCOCC3)cc2)cn1
6. CN1CCCC1CNC(=O)CCCOCc1ccccc1 (stereo not drawn)
7. Cc1cccc(-n2c(C)cc(C(=O)N3CCn4c(C)nnc4C3)c2C)c1

[reply]
1: 17.4; 2: 6.25; 3: 5.94; 4: 0.478; 5: 4.9; 6: 5.39; 7: 11.3

Provide each entry's Percent Effect from the list below.
1. O=C(c1ccc(Br)o1)N1CCN(Cc2ccc(OC(F)(F)F)cc2)CC1
2. Cn1cnc2c1C(COCC1CC1)CN(C(=O)Cc1ccsc1)C2 (stereo not drawn)

[reply]
2.15
2.12

###

Assignment: determine reported Percent Effect for the given molecules.
assayedTarget: Protein translocase subunit SecA (Escherichia coli (strain K12)) (UniProt P10408)
Sequence (P10408 whole entry): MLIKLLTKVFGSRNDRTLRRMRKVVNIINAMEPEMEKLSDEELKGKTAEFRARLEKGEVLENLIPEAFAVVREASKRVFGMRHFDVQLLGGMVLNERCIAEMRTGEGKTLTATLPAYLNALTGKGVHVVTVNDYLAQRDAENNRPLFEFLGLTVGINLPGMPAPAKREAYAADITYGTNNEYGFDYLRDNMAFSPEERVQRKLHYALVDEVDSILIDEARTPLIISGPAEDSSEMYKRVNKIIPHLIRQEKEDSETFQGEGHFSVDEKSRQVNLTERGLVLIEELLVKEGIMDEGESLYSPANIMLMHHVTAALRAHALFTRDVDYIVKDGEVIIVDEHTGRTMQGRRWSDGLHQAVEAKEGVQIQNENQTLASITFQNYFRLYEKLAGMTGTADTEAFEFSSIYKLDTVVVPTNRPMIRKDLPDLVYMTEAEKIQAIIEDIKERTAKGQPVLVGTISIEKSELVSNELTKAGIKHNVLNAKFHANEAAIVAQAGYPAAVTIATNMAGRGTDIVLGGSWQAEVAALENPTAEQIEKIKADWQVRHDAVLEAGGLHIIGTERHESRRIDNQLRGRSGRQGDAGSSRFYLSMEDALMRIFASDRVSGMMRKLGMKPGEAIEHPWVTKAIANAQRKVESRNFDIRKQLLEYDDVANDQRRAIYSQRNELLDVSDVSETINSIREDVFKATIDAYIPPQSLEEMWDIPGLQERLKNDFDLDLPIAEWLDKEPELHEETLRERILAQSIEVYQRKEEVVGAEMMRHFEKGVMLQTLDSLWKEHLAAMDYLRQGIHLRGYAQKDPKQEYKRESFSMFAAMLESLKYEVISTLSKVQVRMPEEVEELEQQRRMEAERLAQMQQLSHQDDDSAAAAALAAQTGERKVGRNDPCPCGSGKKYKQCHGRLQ
testDescription: Assay to Identify E. coli SecA ATPase Inhibitors
Type: functional
Set-up: scale not given: direction of the effect not stated beside the values
measurementParameters: 30 µM
Measured potencies and affinities stand elsewhere.
Answers are plain numbers, in %.

Field: example entries. Status: answers known.
CN(Cc1ccc2c(c1)OCCO2)C(=O)Cn1ccccc1=O; -0.175
Cc1cnn(C2CCCN(C(=O)CCCOc3cccc(F)c3)C2)c1 (stereo unspecified); -4.89
NCC(=O)N1CCCC(c2cncc(Nc3ncccn3)n2)C1 (stereo unspecified); -3.81
CCN1CCN(C2CCN(Cc3c(C)noc3C)CC2)C1=O; -8.32
CC(C(=O)NCc1ccnc(N2CCCC2)c1)n1cncn1 (stereo unspecified); -3.9

Proceed to the following item.
[ask] Requested read-out: Percent Effect. Entry: O=C(CN(Cc1cccnc1)CC1CCCO1)Nc1ccc(F)cc1 (stereo unspecified)
[reply] -3.61
